studySystem: Wee1 (Homo sapiens, UniProt P30291)
Sequence (P30291 whole entry): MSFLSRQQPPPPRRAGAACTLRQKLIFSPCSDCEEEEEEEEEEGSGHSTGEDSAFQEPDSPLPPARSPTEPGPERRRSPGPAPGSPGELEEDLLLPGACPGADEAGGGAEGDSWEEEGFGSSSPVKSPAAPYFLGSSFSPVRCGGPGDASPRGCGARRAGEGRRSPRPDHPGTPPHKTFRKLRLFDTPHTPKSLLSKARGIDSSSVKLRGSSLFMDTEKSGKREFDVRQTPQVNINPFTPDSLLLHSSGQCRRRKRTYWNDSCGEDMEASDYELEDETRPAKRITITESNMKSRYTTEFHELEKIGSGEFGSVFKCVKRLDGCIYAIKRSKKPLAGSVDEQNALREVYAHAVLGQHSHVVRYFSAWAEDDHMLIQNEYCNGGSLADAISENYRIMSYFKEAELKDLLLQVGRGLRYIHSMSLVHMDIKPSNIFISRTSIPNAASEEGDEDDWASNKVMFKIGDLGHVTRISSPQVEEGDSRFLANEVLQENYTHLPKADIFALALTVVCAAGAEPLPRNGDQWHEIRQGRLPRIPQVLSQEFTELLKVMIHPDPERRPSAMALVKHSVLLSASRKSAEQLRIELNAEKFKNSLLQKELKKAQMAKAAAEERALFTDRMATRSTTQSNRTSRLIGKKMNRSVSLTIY
test: Immunoblot of Wee1 degradation in parental MOLT4 cells
Format: cell-based
testParameters: MOLT4 cells, 5 hr treatment
measuredEndpoint: Wee1 degradation (immunoblot, in words)

INSERT INTO measurements (molecule, studysystem, measuredvalue) VALUES
  ('C=CCn1c(=O)c2cnc(Nc3ccc(N4CCN(CCOCCOCCOCCNc5cccc6c5C(=O)N(C5CCC(=O)NC5=O)C6=O)CC4)cc3)nc2n1-c1cccc(C(C)(C)O)n1 (stereo not shown)', 'Wee1 (Homo sapiens, UniProt P30291)', 'induced Wee1 degradation'),
  ('C=CCn1c(=O)c2cnc(Nc3ccc(N4CCN(CCCNC(=O)CCOCCOCCNc5cccc6c5C(=O)N(C5CCC(=O)NC5=O)C6=O)CC4)cc3)nc2n1-c1cccc(C(C)(C)O)n1 (stereo not shown)', 'Wee1 (Homo sapiens, UniProt P30291)', 'induced Wee1 degradation');

====

Tested on: MOLT4 cells
test: CellTiter-Glo cell viability, parental MOLT4
Assay type: cell-based
testParameters: Homo sapiens, MOLT-4, 72 h, read-out: IC50, antiproliferative activity
Record form. Attribute: pIC50. Fill in for each entry.
pIC50 field: float, defined as -log10 of concentration (mol/L).

stdin: State its pIC50 for this molecule: C=CCn1c(=O)c2cnc(Nc3ccc(N4CCN(C)CC4)cc3)nc2n1-c1cccc(C(C)(C)O)n1 [AZD1775, reference compound]
stdout: 6.10

stdin: State its pIC50 for this molecule: C=CCn1c(=O)c2cnc(Nc3ccc(N4CCN(CCCNc5cccc6c5C(=O)N(C5CCC(=O)NC5=O)C6=O)CC4)cc3)nc2n1-c1cccc(C(C)(C)O)n1 (centres unmarked)
stdout: 6.41
